# Test system: HCT-116 colon
# assay: NCI tumour cell line growth inhibition, 48 h
// reported TGI per item

Example entries and their recorded answers appear below.
COc1c(C)c(C/C=C(\C)CCCCO[Si](C(C)C)(C(C)C)C(C)C)c(OC)c2ccccc12: > 100 µM
N#C/C(=C\c1ccc(-c2ccc(Cl)cc2)o1)C(=O)Nc1ncc(Cc2ccc(Cl)cc2)s1: 3.51 µM
Oc1ccc(-c2nnc3sc(-c4ccc(F)c(Oc5ccccc5)c4)nn23)cc1: > 100 µM
Cc1nc(C)c(C(=O)NNC(=O)Cc2ccccc2)cc1C(=O)NNC(=O)Cc1ccccc1: > 100 µM
CSc1c(C(=O)Nc2ccc(Cl)cc2)c(N)nn1-c1ccccc1: > 100 µM

Prompt line: // lookup TGI for COc1ccc(CCN2C(=O)C=CC2=O)cc1OC
Response line: 11.2 µM

Prompt line: Also need COc1cc2c(cc1OCCCOc1cc(-c3ccc(F)cc3)nc(C)n1)N=C[C@@H]1CCCN1C2=O , thanks.
Response line: 30.6 µM

Prompt line: Same question for N#Cc1c(-c2ccc(Cl)cc2)cc(-c2ccc(Nc3ccnc4cc(C(F)(F)F)ccc34)cc2)[nH]c1=O please.
Response line: > 44 µM

Prompt line: Likewise for COc1c(Cl)c2c(c(OC)c1OC)-c1ccc(OC)c(=O)c(Cl)c1C(NC(C)=O)CC2 (stereo not given) ?
Response line: 0.322 µM

Prompt line: Param item: Cc1cc(NC(=S)Nc2ccccc2)c(NC(=S)Nc2ccccc2)cc1C
Response line: > 100 µM

FYI, the data here is from PubChem BioAssay (NCI).
